TESTED_ON: Nuclear receptor coactivator 1 (Homo sapiens)
MEASUREMENT_PROTOCOL: SRC1 (NCOA1) coactivator inhibitors, dose response, cell-based, luciferase reporter, luminescence (AID 602235);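 further: cells transfected with pGL4.31 reporter plus pBIND-SRC1 vector; potency is for inhibitors that lower SRC1 reporter luminescence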
Calls of active or inactive are those of the source. How the calls were made is not given here.
The reply should be one of these categories: active, inactive

Example entries and their recorded answers appear below.
O=c1ccc2c(ccc3ncccc32)o1 inactive
COc1ccc(/C=C2/SC(=S)N(CCC(=O)O)C2=O)cc1 inactive
CNc1ncnc(Sc2nc(N)nc3nc[nH]c23)c1[N+](=O)[O-] inactive
O=C1NCCc2c1[nH]c1ccc([N+](=O)[O-])cc21 inactive
Cc1nc(N2CCC(C(N)=O)CC2)c2c(-c3cccs3)csc2n1 active

Outcome logged for O=C(CCCc1nc(-c2ccccc2Cl)no1)NC1CCCC1 in this assay:
inactive

---

TESTED_ON: Nuclear receptor coactivator 1 (Homo sapiens) (UniProt Q15788)
Sequence (Q15788 whole entry, looked up): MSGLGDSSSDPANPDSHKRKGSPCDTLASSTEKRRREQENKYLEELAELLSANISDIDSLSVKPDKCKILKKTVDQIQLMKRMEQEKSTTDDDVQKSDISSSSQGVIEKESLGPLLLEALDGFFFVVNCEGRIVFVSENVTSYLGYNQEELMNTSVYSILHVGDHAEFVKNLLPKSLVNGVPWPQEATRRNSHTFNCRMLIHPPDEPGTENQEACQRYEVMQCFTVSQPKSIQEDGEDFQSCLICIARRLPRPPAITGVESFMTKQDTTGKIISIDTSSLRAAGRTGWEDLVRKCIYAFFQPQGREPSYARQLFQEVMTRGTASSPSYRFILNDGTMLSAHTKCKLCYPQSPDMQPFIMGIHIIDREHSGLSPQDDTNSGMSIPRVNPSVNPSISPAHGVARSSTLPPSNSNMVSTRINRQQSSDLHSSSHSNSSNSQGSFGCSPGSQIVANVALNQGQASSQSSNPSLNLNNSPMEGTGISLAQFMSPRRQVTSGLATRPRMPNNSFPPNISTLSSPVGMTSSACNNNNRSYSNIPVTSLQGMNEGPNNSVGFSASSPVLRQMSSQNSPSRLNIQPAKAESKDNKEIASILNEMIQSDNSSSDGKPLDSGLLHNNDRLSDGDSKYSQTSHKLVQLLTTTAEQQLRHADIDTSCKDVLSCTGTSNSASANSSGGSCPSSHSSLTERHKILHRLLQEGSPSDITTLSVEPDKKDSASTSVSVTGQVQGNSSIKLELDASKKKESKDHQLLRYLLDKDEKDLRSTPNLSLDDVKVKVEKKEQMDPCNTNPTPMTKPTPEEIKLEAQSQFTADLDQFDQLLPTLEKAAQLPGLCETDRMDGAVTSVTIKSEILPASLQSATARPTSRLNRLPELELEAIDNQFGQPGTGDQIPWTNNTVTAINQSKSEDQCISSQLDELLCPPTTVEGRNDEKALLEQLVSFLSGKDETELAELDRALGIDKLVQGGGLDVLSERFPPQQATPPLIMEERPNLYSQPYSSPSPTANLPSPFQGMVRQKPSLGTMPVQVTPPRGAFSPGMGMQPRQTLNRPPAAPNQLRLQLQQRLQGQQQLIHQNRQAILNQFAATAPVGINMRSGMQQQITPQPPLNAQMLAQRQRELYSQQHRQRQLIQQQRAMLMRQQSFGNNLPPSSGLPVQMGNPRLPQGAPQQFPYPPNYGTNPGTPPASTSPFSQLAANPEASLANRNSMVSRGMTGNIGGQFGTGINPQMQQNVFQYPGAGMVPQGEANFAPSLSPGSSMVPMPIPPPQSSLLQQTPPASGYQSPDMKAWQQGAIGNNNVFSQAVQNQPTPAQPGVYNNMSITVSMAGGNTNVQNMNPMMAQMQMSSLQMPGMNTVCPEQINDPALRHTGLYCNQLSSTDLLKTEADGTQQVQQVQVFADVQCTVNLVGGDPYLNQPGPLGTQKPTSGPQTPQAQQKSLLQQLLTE
MEASUREMENT_PROTOCOL: SRC1 (NCOA1) coactivator inhibitors, dose response, cell-based, luciferase reporter, luminescence (AID 602235);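 further: cells transfected with pGL4.31 reporter plus pBIND-SRC1 vector; potency is for inhibitors that lower SRC1 reporter luminescence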
Calls of active or inactive are those of the source. How the calls were made is not given here.
Bench note: report the call from True = active, False = inactive

Look over these answered cases.
COMPOUND	TESTED_ON	CATEGORY_LABEL
O=C(N/N=C/c1ccc(O)cc1O)/C(=C/c1ccccc1)CCO	Nuclear receptor coactivator 1 (Homo sapiens) (UniProt Q15788)	False
COc1cc2c3c([nH]c2cc1F)C(=O)NCC3	Nuclear receptor coactivator 1 (Homo sapiens) (UniProt Q15788)	True
CCCCC(=O)OCC(=O)C1(O)Cc2c(O)c3c(c(O)c2C(OC2CC(NC(=O)C(F)(F)F)C(O)C(C)O2)C1)C(=O)c1c(OC)cccc1C3=O (stereo not given)	Nuclear receptor coactivator 1 (Homo sapiens) (UniProt Q15788)	False
COc1ccc2c(c1)-c1c(ssc1=S)C(C)(C)N2C(=O)CSC1=NCCS1	Nuclear receptor coactivator 1 (Homo sapiens) (UniProt Q15788)	False
Cn1c(=O)c2[nH]c(COc3ccc(C(C)(C)C)cc3)nc2n(C)c1=O	Nuclear receptor coactivator 1 (Homo sapiens) (UniProt Q15788)	False
O=C(CCC1CCCC1)Nc1ccc(C(=O)NCc2cccnc2)cc1	Nuclear receptor coactivator 1 (Homo sapiens) (UniProt Q15788)	True
C=CCc1ccccc1OCC(=O)N/N=C/c1ccc(OC(C)=O)cc1OC(C)=O	Nuclear receptor coactivator 1 (Homo sapiens) (UniProt Q15788)	False
Cc1ccc2occ(/C=N/NC(=O)c3ccncc3)c(=O)c2c1	Nuclear receptor coactivator 1 (Homo sapiens) (UniProt Q15788)	False
Nc1ccn(C2OC(CO)C(O)C2O)c(=O)n1 (stereo not given)	Nuclear receptor coactivator 1 (Homo sapiens) (UniProt Q15788)	False

Next:
I'd appreciate the recorded outcome for COc1ccccc1/C=C\C(=O)NCC(=O)N/N=C/c1cccc(OC)c1O from this test.
False

---

TESTED_ON: UniProt Q15788
MEASUREMENT_PROTOCOL: SRC1 (NCOA1) coactivator inhibitors, dose response, cell-based, luciferase reporter, luminescence (AID 602235);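 further: cells transfected with pGL4.31 reporter plus pBIND-SRC1 vector; potency is for inhibitors that lower SRC1 reporter luminescence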
Active and inactive are the calls of the source. No rule for the calls is given here.
Entry note: the call must match one of 1.0 for active, 0.0 for inactive

// return assay outcome for S=C(Nc1ccccc1)Nc1ccc(OCc2ccc(Cl)cc2Cl)cc1
1.0

Tell me the recorded outcome of this test for COc1cc(C(=O)NC(=S)NNC(=O)c2cnccn2)cc(OC)c1OC .
0.0

Record lookup: outcome of this test for Cc1cccc(C)c1-n1nnnc1C(c1cccs1)N1CCC2(CC1)C(=O)NCN2c1ccccc1 (stereo not given) ?
0.0

Give the logged outcome of this assay for the following compound: C=C1C(=O)[C@@]23C[C@H]4[C@@H]5[C@@]6(C)CCC[C@@]57[C@@H]2[C@@H](O)[C@@H]1C[C@H]3[C@H]7N4C6
1.0

Name the outcome recorded for CCOc1ccccc1-n1c(SCC(=O)Nc2ccccc2C(=O)O)nc2ccccc2c1=O in the assay.
0.0

What did this assay record as the result for O=C(N/N=C/c1ccccc1O)/C(=C/c1ccccc1)CCO ?
0.0

Kindly provide the recorded test outcome for the following compound: CCC(=O)c1ccc(Oc2nc3c(c(=O)n(C)c(=O)n3C)n2CC)cc1
1.0

Which result was noted for this compound in the test: c1nc2sc3c(c2c2nnnn12)CCCC3
0.0

Please state the recorded outcome for this compound: Cc1nc2c(-c3ccc(Cl)cc3)c(C)[nH]n2c(=O)c1Cc1ccccc1
1.0
